measuredTarget: human IL-21R expressed on cells (human, UniProt Q9HBE5 20-538)
Sequence (Q9HBE5 20-538 limits assumed): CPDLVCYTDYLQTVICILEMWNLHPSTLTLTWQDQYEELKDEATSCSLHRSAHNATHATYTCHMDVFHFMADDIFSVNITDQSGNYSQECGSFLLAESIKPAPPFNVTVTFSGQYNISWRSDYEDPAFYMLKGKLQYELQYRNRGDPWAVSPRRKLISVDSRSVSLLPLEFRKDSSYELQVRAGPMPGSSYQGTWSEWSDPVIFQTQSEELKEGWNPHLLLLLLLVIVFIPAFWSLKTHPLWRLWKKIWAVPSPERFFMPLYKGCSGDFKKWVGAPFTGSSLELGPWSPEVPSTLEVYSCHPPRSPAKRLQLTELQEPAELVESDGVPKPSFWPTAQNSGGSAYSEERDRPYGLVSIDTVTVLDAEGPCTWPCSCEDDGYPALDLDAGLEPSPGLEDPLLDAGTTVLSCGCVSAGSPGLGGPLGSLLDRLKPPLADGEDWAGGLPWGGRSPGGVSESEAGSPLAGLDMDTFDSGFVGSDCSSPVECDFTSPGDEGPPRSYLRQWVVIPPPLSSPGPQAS
procedureSummary: cell-based or functional assay
valueType: Human IL-21R-BaF3 Proliferation IC50 (nM)
Kindly provide the numeric value in nM only, without the unit symbol.

What value of Human IL-21R-BaF3 Proliferation IC50 has been reported for the following binder? AbN (antibody, human IgG1, V domains shown, Full-length human IgG1 / human lambda, transient, conditioned medium; Framework limits derived; also called VH6/VL24) VH: QVQLQESGPGLVKPSETLSLTCAVSGYSISSGYYWGWIRQPPGKGLEWIGSISHTGNTYYNPPLKSRVTISVDTSKNQFSLKLSSVTAADTAVYYCARFFGFGRPEYWGQGTLVTVSS VL: SSELTQDPAVSVALGQTVRITCQGDSLRTYYASWYQQKPGQAPVLVIYGKHKRPSGIPDRFSGSSSGNTASLTITGAQAEDEADYYCIARSNKGNPHVLFGGGTQLTVL
0.5
